Listed below are molecules with IC50 for UniProt:P48736, each taken from published literature.
readout name: IC50

molecule_smiles=Cc1cc(-c2ccc3nc(N)oc3c2)cn2c(CCN3CCN(C)CC3)nnc12 obs_value="> 10 µM"
molecule_smiles=Cc1ccccc1-n1c(Cn2nc(C#C[C@@H](C)O)c3c(N)ncnc32)cc2cccc(C)c2c1=O obs_value="< 10 µM"
molecule_smiles=Cc1cccc2cc(Cn3nc(C#C[C@@H](C)O)c4c(N)ncnc43)n(-c3ccccc3O)c(=O)c12 obs_value="< 10 µM"
molecule_smiles=Cn1cc(/C=C2\Oc3cccc(O)c3C2=O)c2c(-c3cccc(C(=O)Nc4ccccc4)c3)ccnc21 obs_value="1.23 µM"
molecule_smiles=CC[C@H](Nc1ncnc2cccc(F)c12)c1nc2cccc(-c3cncnc3)c2c(=O)n1-c1ccccc1 obs_value="4.28 µM"
molecule_smiles=CCN(Cc1cc2cccc(C)c2c(=O)n1-c1ccccc1C)c1ncnc2[nH]cnc12 obs_value="< 10 µM"
molecule_smiles=Nc1nc2cc(-c3ccc4nc(N5CCOCC5)cnc4n3)ccc2o1 obs_value="> 10 µM"
molecule_smiles=C[C@H](Nc1ncnc2scnc12)c1cc2cccc(Cl)c2c(C(=O)N2CCS(=O)(=O)CC2)n1 obs_value="< 1 µM"
molecule_smiles=Nc1ncnc2c1c(-c1cn[nH]c1)nn2Cc1cc2cccc(F)c2c(=O)n1-c1ccccc1F obs_value="< 10 µM"
molecule_smiles=Cc1ccccc1-n1c(Cn2nc(-c3cnn(CCO)c3)c3c(N)ncnc32)cc2cccc(C)c2c1=O obs_value="< 1 µM"
molecule_smiles=C[C@@H]1CN(C2CCN(C(=O)c3nc4c(N5CCOCC5)nc(-c5cnn(C)c5)nc4[nH]3)CC2)C[C@H](C)O1 obs_value="1.18 µM"
molecule_smiles=O=C1C(=Cc2cn(CCCN3CCOCC3)c3ncccc23)Oc2c1ccc(O)c2O obs_value="9.17 µM"
molecule_smiles=Cn1cc(-c2nc(N3CCOCC3)c3nc(C(=O)N4CCC(N5CCOCC5)CC4)[nH]c3n2)cn1 obs_value="> 1 µM"
molecule_smiles=CC[C@H](Nc1ncnc2cccc(F)c12)c1nc2cccc(-c3cnc(N)nc3)c2c(=O)n1-c1ccccc1 obs_value="1.23 µM"
molecule_smiles=Cc1ccccc1-n1c(Cn2nc(Cl)c3c(N)ncnc32)cc2cccc(C)c2c1=O obs_value="< 1 µM"
molecule_smiles=NC(=O)c1cccc(Nc2nc(-c3cccc(O)c3)nc3c2cnn3C2CCN(Cc3ccccc3)CC2)c1 obs_value="7 µM"

====

pIC50: −log10 of the molar value.
# merged literature set: pIC50 with PIK3CG (human)
readout name: pIC50

molecule_smiles=Cc1ccccc1-n1c(Cn2nc(-c3cnn(C)c3)c3c(N)ncnc32)cc2cccc(C)c2c1=O readout_name=pIC50 obs_value="> 6.00"
molecule_smiles=CC(C)[C@@H](N)C(=O)N1CCN(c2cnc3ccc(-c4ccc5oc(N)nc5c4)cc3n2)CC1 readout_name=pIC50 obs_value="> 6.00"
molecule_smiles=COc1cc(-c2cccc3cc([C@H](C)NC(=O)c4ncc(C)nc4N)n(-c4ccccc4)c(=O)c23)ccn1 readout_name=pIC50 obs_value="5.00 to 6.00"
molecule_smiles=CCn1ccc2c(N3CCOCC3)nc(-c3ccc(NC(=O)Nc4ccc(C(=O)N5CCC(N6CCCCC6)CC5)cc4)cc3)nc21 readout_name=pIC50 obs_value=7.55
molecule_smiles=Cc1nc([C@H](C)Nc2ncnc3[nH]cnc23)cc2cccc(-c3cccnc3)c12 readout_name=pIC50 obs_value="> 5.00"
molecule_smiles=Cc1cccnc1-n1c(Cn2nc(-c3cc(O)cc(F)c3)c3c(N)ncnc32)nc2scc(C)c2c1=O readout_name=pIC50 obs_value="< 5.00"
molecule_smiles=Cc1cccc2cc([C@H](C)Nc3cc(N)nc(Cl)n3)n(-c3ccccc3)c(=O)c12 readout_name=pIC50 obs_value="> 5.00"
molecule_smiles=Cc1ccccc1-n1c(Cn2nc(CN3CCOCC3)c3c(N)ncnc32)cc2cccc(C)c2c1=O readout_name=pIC50 obs_value="< 5.00"
molecule_smiles=Cn1cc(/C=C2\Oc3cccc(O)c3C2=O)c2c(N3CCC(CN)CC3)ccnc21 readout_name=pIC50 obs_value=6.68
molecule_smiles=Cc1ccccc1-n1c(Cn2nc(-c3ccc(O)c(F)c3)c3c(N)ncnc32)cc2cccc(C)c2c1=O readout_name=pIC50 obs_value="> 7.00"
molecule_smiles=CN(C)CCOc1ccc(NC(=O)Nc2ccc(-c3nc(N4CCOCC4)c4ccn(CC(F)(F)F)c4n3)cc2)cc1 readout_name=pIC50 obs_value=7.96
molecule_smiles=Cn1ncc2c(Nc3ccc(C(N)=O)cc3)nc(Nc3ccc(NC(=O)NC4CC4)cc3)nc21 readout_name=pIC50 obs_value=6.58
molecule_smiles=Cc1cc(-c2ccc3nc(N)oc3c2)cn2c(N3CCN(C)CC3)nnc12 readout_name=pIC50 obs_value="< 5.00"
molecule_smiles=COc1ccnc(CN(C)C(=O)C2CCN(c3ccnc4c3c(/C=C3\Oc5ccc(NC(=O)Nc6cccnc6)cc5C3=O)cn4C)CC2)c1 readout_name=pIC50 obs_value=5.85
molecule_smiles=Cc1ccccc1-n1c(Cn2nc(-c3ccc4ncnc(N)c4c3)c3c(N)ncnc32)cc2cccc(C)c2c1=O readout_name=pIC50 obs_value="> 7.00"

====

pIC50: −log10 of the molar value.
A compilation of published pIC50 results with PIK3CG (human).
readout name: pIC50

molecule=Cc1nc(NC(=O)CCCN[C@@H](C(=O)OC2CCCC2)c2ccccc2)sc1-c1ccc(Cl)c(S(C)(=O)=O)c1 readout_name=pIC50 obs_value="6.00 to 7.00"
molecule="Cc1cccc2cc(C(C)Nc3ncnc4[nH]cnc34)n(CCN3CCCC3)c(=O)c12 (stereo not drawn)" readout_name=pIC50 obs_value="< 5.00"
molecule=C[C@H](Nc1ncnc2cccnc12)c1cc2cccc(Cl)c2c(C(=O)N2CCCOCC2)n1 readout_name=pIC50 obs_value="> 5.00"
molecule=C[C@H](Nc1ncnc2scnc12)c1cc2cccc(Cl)c2c(C(=O)N2CCOC[C@H]2C)n1 readout_name=pIC50 obs_value="> 5.00"
molecule=COc1ccc2c(n1)c(C=C1Oc3c(ccc(O)c3O)C1=O)cn2C readout_name=pIC50 obs_value=5.07
molecule="COc1ncc(-c2ccc3ncn(CC(C)C(=O)NCCF)c(=O)c3c2)cc1NS(=O)(=O)c1ccc(F)cc1Cl (single isomer, unassigned)" readout_name=pIC50 obs_value=7.74
molecule=CC(=O)N(C)Cc1cccc2cc([C@H](C)NC(=O)c3c(N)nn4cccnc34)n(-c3ccccc3)c(=O)c12 readout_name=pIC50 obs_value="< 5.00"
molecule="Cc1nc(NCC2CCC(N[C@@H](CC(C)C)C(=O)OC3CCCC3)CC2)sc1-c1ccc(Cl)c(S(C)(=O)=O)c1 (stereo partly drawn)" readout_name=pIC50 obs_value="< 6.00"
molecule=CC(C)(N)C(=O)N1CCN(c2cnc3ccc(-c4ccc5oc(N)nc5c4)nc3n2)CC1 readout_name=pIC50 obs_value="> 5.00"
molecule=C/C=C/C(=O)CCC(=O)NCCS(=O)(=O)N1CCN(Cc2cc3nc(-c4cccc(O)c4)nc(N4CCOCC4)c3s2)CC1 readout_name=pIC50 obs_value="6.00 to 7.00"
molecule=Cc1cccnc1-n1c(Cn2nc(I)c3c(N)ncnc32)cc2cccc(C)c2c1=O readout_name=pIC50 obs_value="> 6.00"
molecule=C[C@@H]1CN(c2cnc3ccc(-c4ccc5oc(N)nc5c4)nc3n2)CCN1 readout_name=pIC50 obs_value="> 6.00"
molecule=O=C(Nc1ccncc1)Nc1ccc(-c2nc(N3CCOCC3)c3ccn(CC(F)(F)F)c3n2)cc1 readout_name=pIC50 obs_value=7.20
molecule=CC(C)c1ccn2nc(N)c(C(=O)N[C@@H](C)c3cc4cccc(Cl)c4c(=O)n3-c3ccccc3)c2n1 readout_name=pIC50 obs_value="5.00 to 6.00"
molecule=CC(C)n1ccc2c(N3CCOCC3)nc(-c3ccc(NC(=O)Nc4ccc(OCCN(C)C)cc4)cc3)nc21 readout_name=pIC50 obs_value=6.66

====

Compiled from multiple publications: IC50 readings for UniProt P48736.
# note: exactly 30 nM is not below, so it is NO; use YES for IC50 strictly under it

compound=Cn1cc(/C=C2\Oc3cc(O)cc(O)c3C2=O)c2c(-c3ccc(F)c(C(=O)Nc4ccccc4)c3)ccnc21 classification=NO
compound="CNC(=O)C(C)Cn1cnc2ccc(-c3cnc(CO)c(NS(=O)(=O)c4ccc(F)cc4Cl)c3)cc2c1=O (single isomer, unassigned)" classification=NO
compound=Cn1cc(/C=C2\Oc3cc(O)cc(O)c3C2=O)c2c(-c3cccc(Cl)c3)ccnc21 classification=NO
compound=COc1ncc(-c2cccc3cc([C@H](C)Nc4ncnc5ccc(C#N)cc45)n(-c4ccccc4)c(=O)c23)cn1 classification=NO
compound=CN1CCN(C(=O)Nc2ccc3c(c2)C(=O)/C(=C/c2cn(C)c4nccc(-c5ccccc5)c24)O3)CC1 classification=NO
compound=CCn1ccc2c(N3CCOCC3)nc(-c3ccc(NC(=O)Nc4ccc(C(=O)NCCCN(C)C)cc4)cc3)nc21 classification=NO
compound=CN(CCO)C(=O)c1ccc(NC(=O)Nc2ccc(Nc3nc(Nc4ccc(C(N)=O)cc4)c4cnn(C)c4n3)cc2)cc1 classification=YES
compound=CN(C)CCn1ccc2c(N3CCOCC3)nc(-c3ccc(N)cc3)nc21 classification=NO
compound=CC(=O)Nc1ccc(Oc2nc(-c3ccccc3)nc3c2cnn3C)cc1 classification=NO
compound=CCn1ccc2c(N3CCOCC3)nc(-c3ccc(NC(=O)Nc4ccc(C(=O)NCCN(C)C)cc4)cc3)nc21 classification=YES
